Molecular target: Phosphatidylinositol 4,5-bisphosphate 3-kinase catalytic subunit delta isoform (Homo sapiens)
Sequence (O00329 whole entry): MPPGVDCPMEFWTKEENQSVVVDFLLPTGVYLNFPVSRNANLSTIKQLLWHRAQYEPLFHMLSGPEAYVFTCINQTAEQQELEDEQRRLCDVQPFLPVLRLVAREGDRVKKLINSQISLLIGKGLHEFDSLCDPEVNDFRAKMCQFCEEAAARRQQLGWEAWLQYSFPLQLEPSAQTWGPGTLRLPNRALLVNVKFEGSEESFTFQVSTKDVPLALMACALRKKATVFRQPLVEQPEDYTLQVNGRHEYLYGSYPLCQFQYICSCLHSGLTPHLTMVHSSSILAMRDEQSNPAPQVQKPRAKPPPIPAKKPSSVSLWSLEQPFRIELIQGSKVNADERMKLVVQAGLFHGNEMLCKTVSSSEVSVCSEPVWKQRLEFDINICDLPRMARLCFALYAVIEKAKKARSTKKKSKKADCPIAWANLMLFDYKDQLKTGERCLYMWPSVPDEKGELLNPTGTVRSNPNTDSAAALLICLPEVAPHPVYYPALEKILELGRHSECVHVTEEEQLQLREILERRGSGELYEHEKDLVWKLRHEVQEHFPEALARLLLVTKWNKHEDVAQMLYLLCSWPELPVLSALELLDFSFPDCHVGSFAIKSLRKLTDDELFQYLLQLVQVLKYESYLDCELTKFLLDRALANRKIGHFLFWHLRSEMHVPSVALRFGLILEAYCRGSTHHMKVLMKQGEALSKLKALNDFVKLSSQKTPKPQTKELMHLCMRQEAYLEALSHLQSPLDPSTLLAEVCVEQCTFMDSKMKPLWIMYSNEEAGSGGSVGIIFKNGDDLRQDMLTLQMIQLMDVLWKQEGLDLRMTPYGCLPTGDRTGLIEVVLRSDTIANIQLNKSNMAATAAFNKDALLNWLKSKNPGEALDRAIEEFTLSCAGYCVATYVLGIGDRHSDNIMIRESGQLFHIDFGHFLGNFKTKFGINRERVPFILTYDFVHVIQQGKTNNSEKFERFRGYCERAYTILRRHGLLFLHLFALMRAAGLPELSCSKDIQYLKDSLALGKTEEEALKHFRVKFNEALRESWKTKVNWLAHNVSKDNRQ
Test: Inhibition of human PI3Kdelta by fluorescence-based immunoassay
Property: IC50 (nM)

// below: answered molecules
{"columns": ["Compound Structure", "IC50 (nM)"],
 "data": [
  ["CCn1cc(C(=O)O)c(=O)c2cc(F)c(N3CCN(C(=O)c4cc(Br)ccc4O)CC3)cc21", 474],
  ["O=C(O)c1cn(C2CC2)c2cc(N3CCN(C(=O)c4cc(Cl)ccc4O)CC3)c(F)cc2c1=O", 553]
]}

I. CCn1cc(C(=O)O)c(=O)c2cc(F)c(N3CCN(C(=O)c4c(C)cccc4O)CC3)cc21
II. COc1ccc(C(=O)N2CCN(c3cc4c(cc3F)c(=O)c(C(=O)O)cn4C3CC3)CC2)c(O)c1
[Q] Could you kindly indicate whether I or II has the higher IC50 value? Selection: enter the item's label.
[A] I

1. O=C(O)c1cn(C2CC2)c2cc(N3CCN(C(=O)c4cc(Br)ccc4O)CC3)c(F)cc2c1=O
2. O=C(O)c1cn(C2CC2)c2cc(N3CCN(C(=O)c4cc([N+](=O)[O-])cc([N+](=O)[O-])c4O)CC3)c(F)cc2c1=O
[Q] Could you kindly indicate whether 1 or 2 has the higher IC50 value? Selection: enter the item's label.
[A] 1
(1: 674 nM, 2: 271 nM)

---

Test system: HeLa
Assay: Antiproliferative activity against human HeLa cells after 72 hrs by MTT assay
Assay type: functional, cell-based
Property: IC50 (µM)

// below: answered compounds
{"columns": ["Compound Structure", "IC50 [µM]"],
 "data": [
  ["CCn1cc(C(=O)O)c(=O)c2cc(F)c(N3CCN(C(=O)c4cc(Cl)ccc4O)CC3)cc21", 0.96],
  ["COc1ccc(C(=O)N2CCN(c3cc4c(cc3F)c(=O)c(C(=O)O)cn4C3CC3)CC2)cn1", 344],
  ["O=C(O)c1cn(C2CC2)c2cc(N3CCN(C(=O)c4cc([N+](=O)[O-])cc([N+](=O)[O-])c4O)CC3)c(F)cc2c1=O", 0.06]
]}

P. CCn1cc(C(=O)O)c(=O)c2cc(F)c(N3CCN(C(=O)c4cccnc4Cl)CC3)cc21
Q. CCn1cc(C(=O)O)c(=O)c2cc(F)c(N3CCN(C(=O)c4cc(Br)ccc4O)CC3)cc21
[Q] // which entry reports the smaller IC50, P or Q ? Selection: enter the item's label.
[A] Q
(Q: 0.51 µM, P: 88.9 µM)

---

Test system: MCF7
Test: cells
Conditions: Homo sapiens, MCF7, 72 h
Property: IC50 (µM)

// below: answered molecules
{"columns": ["Compound Structure", "IC50 [µM]"],
 "data": [
  ["O=C(O)c1cn(C2CC2)c2cc(N3CCN(C(=O)c4cc(Cl)ccc4O)CC3)c(F)cc2c1=O", 88.4],
  ["COc1ccc(C(=O)N2CCN(c3cc4c(cc3F)c(=O)c(C(=O)O)cn4C3CC3)CC2)c(O)c1", 0.33],
  ["O=C(O)c1cn(C2CC2)c2cc(N3CCN(C(=O)c4cc([N+](=O)[O-])ccc4O)CC3)c(F)cc2c1=O", 47.9]
]}

a. CCn1cc(C(=O)O)c(=O)c2cc(F)c(N3CCN(C(=O)c4c(C)cccc4O)CC3)cc21
b. O=C(O)c1cn(C2CC2)c2cc(N3CCN(C(=O)c4cc([N+](=O)[O-])cc([N+](=O)[O-])c4O)CC3)c(F)cc2c1=O
[Q] // which entry reports the smaller IC50, a or b ? Selection: enter the item's label.
[A] b
(b: 0.11 µM, a: 107 µM)

---

Biological target: Phosphatidylinositol 4,5-bisphosphate 3-kinase catalytic subunit gamma isoform (Homo sapiens)
Sequence (P48736 whole entry, canonical isoform): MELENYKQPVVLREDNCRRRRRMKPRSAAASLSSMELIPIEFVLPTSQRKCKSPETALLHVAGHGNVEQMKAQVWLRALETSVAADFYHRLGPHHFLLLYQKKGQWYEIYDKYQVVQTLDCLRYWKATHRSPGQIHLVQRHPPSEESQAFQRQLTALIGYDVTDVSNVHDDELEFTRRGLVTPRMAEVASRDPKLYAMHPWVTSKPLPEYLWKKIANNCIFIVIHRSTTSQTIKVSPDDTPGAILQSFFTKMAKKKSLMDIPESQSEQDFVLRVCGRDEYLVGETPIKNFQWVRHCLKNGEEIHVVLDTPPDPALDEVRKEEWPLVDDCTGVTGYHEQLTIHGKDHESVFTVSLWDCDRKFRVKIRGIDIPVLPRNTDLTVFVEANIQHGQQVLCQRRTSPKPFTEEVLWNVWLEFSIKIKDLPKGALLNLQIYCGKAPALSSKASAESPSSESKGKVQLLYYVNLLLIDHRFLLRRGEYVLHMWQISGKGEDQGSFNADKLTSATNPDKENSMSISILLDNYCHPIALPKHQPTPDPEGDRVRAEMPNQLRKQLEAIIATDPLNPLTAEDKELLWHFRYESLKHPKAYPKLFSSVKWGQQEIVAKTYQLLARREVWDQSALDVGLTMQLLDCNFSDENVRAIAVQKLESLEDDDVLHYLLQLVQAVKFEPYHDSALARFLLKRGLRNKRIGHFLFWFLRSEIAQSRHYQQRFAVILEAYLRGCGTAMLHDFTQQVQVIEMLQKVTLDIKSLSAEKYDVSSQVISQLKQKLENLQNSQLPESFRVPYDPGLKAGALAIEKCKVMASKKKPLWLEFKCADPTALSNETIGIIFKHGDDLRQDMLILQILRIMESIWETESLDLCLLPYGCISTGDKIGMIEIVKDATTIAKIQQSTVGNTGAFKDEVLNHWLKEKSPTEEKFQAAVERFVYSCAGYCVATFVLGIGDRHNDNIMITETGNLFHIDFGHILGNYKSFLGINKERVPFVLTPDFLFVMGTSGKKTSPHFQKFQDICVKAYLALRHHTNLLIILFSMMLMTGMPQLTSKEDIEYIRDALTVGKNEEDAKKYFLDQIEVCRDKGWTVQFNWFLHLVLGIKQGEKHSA
Assay: Inhibition of human PI3K 110gamma by fluorescence-based immunoassay
Property: IC50 (nM)

{"columns": ["Compound Structure", "IC50 (nM)"],
 "data": [
  ["CCn1cc(C(=O)O)c(=O)c2cc(F)c(N3CCN(C(=O)c4cc(OC)ccc4O)CC3)cc21", 112],
  ["CCn1cc(C(=O)O)c(=O)c2cc(F)c(N3CCN(C(=O)c4c(C)cccc4O)CC3)cc21", 173],
  ["O=C(O)c1cn(C2CC2)c2cc(N3CCN(C(=O)c4cc(Cl)ccc4O)CC3)c(F)cc2c1=O", 174],
  ["CCn1cc(C(=O)O)c(=O)c2cc(F)c(N3CCN(C(=O)c4cc(Br)ccc4O)CC3)cc21", 111]
]}

1. COc1ccc(C(=O)N2CCN(c3cc4c(cc3F)c(=O)c(C(=O)O)cn4C3CC3)CC2)c(O)c1
2. O=C(O)c1cn(C2CC2)c2cc(N3CCN(C(=O)c4cc([N+](=O)[O-])cc([N+](=O)[O-])c4O)CC3)c(F)cc2c1=O
3. O=C(O)c1cn(C2CC2)c2cc(N3CCN(C(=O)c4cc([N+](=O)[O-])ccc4O)CC3)c(F)cc2c1=O
4. O=C(O)c1cn(C2CC2)c2cc(N3CCN(C(=O)c4cccnc4Cl)CC3)c(F)cc2c1=O
[Q] Put the molecules in ascending order of IC50. Form entry: ranked labels (order as requested).
[A] 2, 1, 3, 4
(2: 56 nM, 1: 89 nM, 3: 185 nM, 4: 265 nM)

---

Target: PI3-kinase p110-alpha/p85-alpha (Homo sapiens)
Sequence (P27986 whole entry): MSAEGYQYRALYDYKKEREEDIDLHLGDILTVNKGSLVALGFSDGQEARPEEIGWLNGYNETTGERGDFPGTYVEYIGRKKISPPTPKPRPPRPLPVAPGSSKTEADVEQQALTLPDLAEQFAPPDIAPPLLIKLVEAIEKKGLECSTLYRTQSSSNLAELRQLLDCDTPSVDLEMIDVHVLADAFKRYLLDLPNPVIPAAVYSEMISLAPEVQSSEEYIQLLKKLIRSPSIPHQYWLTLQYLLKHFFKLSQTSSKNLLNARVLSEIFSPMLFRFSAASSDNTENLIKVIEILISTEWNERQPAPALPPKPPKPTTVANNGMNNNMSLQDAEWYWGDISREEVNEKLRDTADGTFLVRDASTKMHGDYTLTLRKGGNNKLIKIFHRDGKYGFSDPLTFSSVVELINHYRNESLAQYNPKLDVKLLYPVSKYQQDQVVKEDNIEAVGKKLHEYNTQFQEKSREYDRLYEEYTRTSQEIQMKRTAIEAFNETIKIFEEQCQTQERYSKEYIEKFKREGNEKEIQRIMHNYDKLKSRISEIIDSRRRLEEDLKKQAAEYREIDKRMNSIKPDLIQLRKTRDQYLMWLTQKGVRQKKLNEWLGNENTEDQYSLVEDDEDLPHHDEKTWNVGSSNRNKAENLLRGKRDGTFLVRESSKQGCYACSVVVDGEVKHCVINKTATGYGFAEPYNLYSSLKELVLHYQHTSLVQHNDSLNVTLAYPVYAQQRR
Sequence (P42336 whole entry): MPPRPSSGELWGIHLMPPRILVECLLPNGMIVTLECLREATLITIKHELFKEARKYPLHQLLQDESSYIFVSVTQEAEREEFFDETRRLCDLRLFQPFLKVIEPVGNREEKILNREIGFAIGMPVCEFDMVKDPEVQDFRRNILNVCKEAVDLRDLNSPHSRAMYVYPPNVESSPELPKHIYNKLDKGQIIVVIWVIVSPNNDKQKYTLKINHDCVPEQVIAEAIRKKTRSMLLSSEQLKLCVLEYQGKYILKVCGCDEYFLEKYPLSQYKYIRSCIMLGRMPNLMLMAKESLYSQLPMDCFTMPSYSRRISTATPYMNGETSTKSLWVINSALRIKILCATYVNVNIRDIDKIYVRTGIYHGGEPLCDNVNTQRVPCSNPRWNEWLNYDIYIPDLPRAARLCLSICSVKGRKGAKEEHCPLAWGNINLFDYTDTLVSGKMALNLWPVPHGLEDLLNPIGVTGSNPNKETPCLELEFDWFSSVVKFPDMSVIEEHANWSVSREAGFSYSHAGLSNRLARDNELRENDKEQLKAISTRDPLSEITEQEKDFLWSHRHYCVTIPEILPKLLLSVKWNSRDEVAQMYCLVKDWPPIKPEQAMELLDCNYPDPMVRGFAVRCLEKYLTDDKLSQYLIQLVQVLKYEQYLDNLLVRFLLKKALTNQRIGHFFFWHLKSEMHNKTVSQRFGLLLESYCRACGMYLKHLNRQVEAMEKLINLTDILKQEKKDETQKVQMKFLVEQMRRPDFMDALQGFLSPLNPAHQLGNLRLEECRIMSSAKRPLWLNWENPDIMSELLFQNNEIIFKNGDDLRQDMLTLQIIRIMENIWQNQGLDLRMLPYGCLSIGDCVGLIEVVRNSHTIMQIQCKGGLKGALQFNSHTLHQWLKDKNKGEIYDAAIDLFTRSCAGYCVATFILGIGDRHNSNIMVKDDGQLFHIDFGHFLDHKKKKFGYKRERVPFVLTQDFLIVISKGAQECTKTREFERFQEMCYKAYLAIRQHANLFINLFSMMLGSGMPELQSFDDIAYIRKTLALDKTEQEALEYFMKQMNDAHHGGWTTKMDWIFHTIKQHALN
Assay: Inhibition of human PI3K p110alpha/p85alpha by fluorescence-based immunoassay
pIC50: −log10 of the molar value.
Property: pIC50

{"columns": ["Compound Structure", "Property", "Reported Result"],
 "data": [
  ["CCn1cc(C(=O)O)c(=O)c2cc(F)c(N3CCN(C(=O)c4cc(Br)ccc4O)CC3)cc21", "pIC50", 6.16],
  ["CCn1cc(C(=O)O)c(=O)c2cc(F)c(N3CCN(C(=O)c4c(C)cccc4O)CC3)cc21", "pIC50", 6.04],
  ["O=C(O)c1cn(C2CC2)c2cc(N3CCN(C(=O)c4cc(Br)ccc4O)CC3)c(F)cc2c1=O", "pIC50", 6.05]
]}

1. O=C(O)c1cn(C2CC2)c2cc(N3CCN(C(=O)c4cc(Cl)ccc4O)CC3)c(F)cc2c1=O
2. O=C(O)c1cn(C2CC2)c2cc(N3CCN(C(=O)c4cc([N+](=O)[O-])ccc4O)CC3)c(F)cc2c1=O
3. O=C(O)c1cn(C2CC2)c2cc(N3CCN(C(=O)c4cc([N+](=O)[O-])cc([N+](=O)[O-])c4O)CC3)c(F)cc2c1=O
[Q] Parameters: sort_field (pIC50), sort_dir (desc). Form entry: ranked labels (order as requested).
[A] 3, 2, 1
(3: 6.45, 2: 6.23, 1: 6.02)
